- Test system: MS2 coat protein
- method.description: apparent KD of MS2 coat protein; designed switch direction (-1 OFF switch, 1 ON switch): 1; higher = weaker reporter binding
- condition.label: input ligand: microRNA oligo, concentration not stated
apparent KD of MS2 coat protein reference
Note: unit nM is implicit; provide only the numeric part.

# ordered.residues, uom, apparent KD of MS2 coat protein
records = [
    ("GCUCGAUGAAUGUCCUACAUGAGGAUCACCCAUGUUCGUGGGCAGGAUAUUUACAUGCAGAGUGUAGAGAAGGGCCCAUCGAGC [SameState NG3 #63] (Eterna round: R96, puzzle: Same State NG 3)", "nM", 63.7),
    ("GGAGCCAGCACCGAGGAUAUUCAUAUUAAAACAUGAGGAUCACCCAUGUAGGCCAGAAGGCCUUGGGAGAAGGCGGACUGGCUCG [Xeonanis - 11] (Eterna round: R96, puzzle: Same State 2)", "nM", 212),
    ("UGUUGUAUUACAGGAUAUCUAGUAUUUUCAUUUAGAGAAGGGUAUUCACAUGAGGAUCACCCAUGUAUAUACGAGGAAGUUGUG [JMF's solution 45] (Eterna round: R96, puzzle: Same State NG 1)", "nM", 34.7),
    ("GAGGGACAGACCAACAUGAGGAUCACCCAUGUCCUCGCAGUUCAGGAUAUCCGGAGGUAGACGAAGGAGAAGGGAAGGUGAACC [AK SSNG3-V2-36] (Eterna round: R96, puzzle: Same State NG 3)", "nM", 382),
    ("AGAUCAUGACGAGGAUAUGGAACAUGAGGAUCACCCAUGUAUGUUCCAUAACGCGAAUGACGAAUCCAGAAGGCGUCGUGAUCA [Mat - Same State NG 2 - JL mod - D26] (Eterna round: R96, puzzle: Same State NG 2)", "nM", 92.1),
]

Query: Lab request: please report apparent KD of MS2 coat protein under test system MS2 coat protein for UUAAUGAUGAUAGGAUAUACAUGAGGAAUUCUCGUAGAAGGAUCAUGACAUGAGGAUCACCCAUGUAUCGCUCGAUAGAGCGUA [Mat - Same State NG 1 - JL mod - D34] (Eterna round: R96, puzzle: Same State NG 1)
Reply: 142

Query: Moving on to the next sequence: UGUUGUAUUACAGGAUAUCUAUUAUUUUUAAUUAGAGAAGGGUAUUCACAUGAGGAUCACCCAUGUAUAUACGAGGAAGUUGUG [JMF's solution 25] (Eterna round: R96, puzzle: Same State NG 1)
Reply: 27.5

Query: Moving on to the next sequence: GUUACAUGAGGAUCACCCAUGUAUGUGUGGGAGUAAGUGUCUUAGGAUAUCUAUCAUUUAAUUGAAGAGAAGGAAGAUUGUUGU [JMF's solution 99] (Eterna round: R96, puzzle: Same State NG 3)
Reply: 71.2

---

apparent KD of K4 kissing-loop reporter reference
- Test system: K4 kissing-loop RNA reporter
- method.description: apparent KD of K4 kissing-loop reporter; higher = weaker reporter binding
- condition.label: Eterna round: R107; input ligand: theophylline 20 uM
Note: unit nM is implicit; provide only the numeric part.

The following sequences have reported results that may help.
# ordered.residues, uom, apparent KD of K4 kissing-loop reporter
measured = [
    ("GUGAGGAUCAGAAGGAGCGUCGGCAAUCCAGUGAUGUUGGGUGUUGGUUAUAUUUAACGACGACAGGUAGGUCGCUGAUUUUCAA [Same State Arginie B GF 21]", "nM", 190),
    ("UAUAUAGUGACGGCCGCCACUAUAUUAAUGUUUAGGUUAGAGUGAUGUUUUGAUUAAUAUUUUUAUAGGACCGGGUUAUAUGUUA [xerrmullin]", "nM", 739),
    ("AUUUUUUUGUCAGGAUAUUAGUAUGCUUUUGGUUUGUUAGUGAUGUUGAUAUUUUGUUUAUGUAUUUAAGAAGGGAUUUAGCGGU [etvuumullin]", "nM", 371),
    ("UUUAUAUUCUGAGGAUAUCGUAUUAAUGAAGUGAUGUUUCAGUAUAUUCUAAUUAUAUAUAAUUUUCGAGAAGGCAGUAUUAUUU [JR_Nu3_SSFMNB_Sub028]", "nM", 320),
    ("AGCUCAGAGUGACUCGAUAAGAGUCACAAACGAGGACCGGUACGGCCGCCACUCGAAAUAAAGAGAGUGAUGUUCUCGCUGAGCA [FiskerMod 9 - Jieux - Same State Tryptophan A]", "nM", 239),
    ("AGACUACCACACUGUCAAUAGACAGUGAGCUAGGAUAUGCUGAUAAGCAGAAGGAGUGAUGUUCCUAGGUAGUCAAUAAAAUAAU [FmnAX 13 G29]", "nM", 645),
]

Query: Lab request: please report apparent KD of K4 kissing-loop reporter under test system K4 kissing-loop RNA reporter for UUAGUCUAGAGAAGGAGCGAGUGAUGUUUGCUAAGCUAUAUAAUAAAAUAUAGCAAAUUUACUCAGGUAGGUCGCUCUAGACAUU [AK3 Exc Arginine B];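 also: bound reporter read as fluorescence of individual clusters on recovered sequencing chips by microscopy, with normalized cluster intensities fitted with a binding model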
Reply: 149

Query: Moving on to the next sequence: AACCUUGUAGUGAUGUUGCAAGGCGCUGAUACCAGUCACAGCCACGACCCUUGGCAGCAGUGGCGUUCAUGAUAAAAUAGAUUAA [theeternabot_sameState_KL_Theo_A_49]
Reply: 37

Query: Moving on to the next sequence: GCAUCCAUGGCAGGAUAUAGGUUCGUGGAGUGAUGUUCCAUAGCCCGAGUGAUGUUCGUUAUCCGCCUAGAAGGGCCGUGGAUGC [whbob_Ex_FMNB__2th214]
Reply: 192

Query: Moving on to the next sequence: UGGAGUUGACGAAAAGUCAACUCCUGAGAUACCAGUGACGAAAGUCACCCUUGGCAGCUCACUGGCAGUGAUGUUGCUAAAUAAA [KL-SSTheo-A2]
Reply: 63.5

Query: Moving on to the next sequence: UGUCAUUGGUCUGAUACCAGUACCCUUGGCAGCCAAGGAGUGAUGUUCCGAGGAUACCAGUGCCCUUGGCAGCAGACCGAUGACU [TheoBS 27 #DoubleAptamer #SwitchBubble]
Reply: 176

Query: Moving on to the next sequence: AACGUGGCCAAAGGAUAUCUCCCUACGUCGUUGCAUCUACCUCUGUUUGCUCUGAGUGAUGUUUGGAGAGAAGGUUGAGGCGAUU [theeternabot_exclusion_KL_FMN_B_29]
Reply: 513

Query: Moving on to the next sequence: UCCACGCUUAGAGGAUAUCGGAUUAGAGUGAUGUUCUAAAGACGCCCAGUGAUGUUGGAUGGUAUACGAGAAGGCUGUGGCGUGU [Same State FMN B GF5]
Reply: 622
